- subject.of.test: GluN1ΔN/GluN2BΔN (Rattus norvegicus, UniProt P35439+Q00960, DEL32-386)
- Construct: expressed in transfected cells; host or cells: HEK293
- Sequence (P35439 with tags, fused parts or gaps DEL32-386): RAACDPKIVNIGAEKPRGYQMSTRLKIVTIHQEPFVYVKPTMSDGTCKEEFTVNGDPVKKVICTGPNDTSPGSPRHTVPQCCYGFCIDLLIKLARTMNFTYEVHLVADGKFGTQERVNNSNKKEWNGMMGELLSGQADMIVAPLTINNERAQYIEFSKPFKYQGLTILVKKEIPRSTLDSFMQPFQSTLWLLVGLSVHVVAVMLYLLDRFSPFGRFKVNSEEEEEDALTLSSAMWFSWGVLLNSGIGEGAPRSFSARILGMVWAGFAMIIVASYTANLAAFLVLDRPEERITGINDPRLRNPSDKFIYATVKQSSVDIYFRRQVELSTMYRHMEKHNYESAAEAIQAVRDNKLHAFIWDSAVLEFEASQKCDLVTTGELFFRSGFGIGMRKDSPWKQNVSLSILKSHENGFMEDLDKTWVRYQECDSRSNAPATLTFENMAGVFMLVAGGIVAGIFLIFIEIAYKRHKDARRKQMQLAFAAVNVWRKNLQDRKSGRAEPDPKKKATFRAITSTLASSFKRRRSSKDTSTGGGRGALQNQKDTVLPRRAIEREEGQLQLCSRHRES
- Sequence (Q00960 with tags, fused parts or gaps DEL32-386): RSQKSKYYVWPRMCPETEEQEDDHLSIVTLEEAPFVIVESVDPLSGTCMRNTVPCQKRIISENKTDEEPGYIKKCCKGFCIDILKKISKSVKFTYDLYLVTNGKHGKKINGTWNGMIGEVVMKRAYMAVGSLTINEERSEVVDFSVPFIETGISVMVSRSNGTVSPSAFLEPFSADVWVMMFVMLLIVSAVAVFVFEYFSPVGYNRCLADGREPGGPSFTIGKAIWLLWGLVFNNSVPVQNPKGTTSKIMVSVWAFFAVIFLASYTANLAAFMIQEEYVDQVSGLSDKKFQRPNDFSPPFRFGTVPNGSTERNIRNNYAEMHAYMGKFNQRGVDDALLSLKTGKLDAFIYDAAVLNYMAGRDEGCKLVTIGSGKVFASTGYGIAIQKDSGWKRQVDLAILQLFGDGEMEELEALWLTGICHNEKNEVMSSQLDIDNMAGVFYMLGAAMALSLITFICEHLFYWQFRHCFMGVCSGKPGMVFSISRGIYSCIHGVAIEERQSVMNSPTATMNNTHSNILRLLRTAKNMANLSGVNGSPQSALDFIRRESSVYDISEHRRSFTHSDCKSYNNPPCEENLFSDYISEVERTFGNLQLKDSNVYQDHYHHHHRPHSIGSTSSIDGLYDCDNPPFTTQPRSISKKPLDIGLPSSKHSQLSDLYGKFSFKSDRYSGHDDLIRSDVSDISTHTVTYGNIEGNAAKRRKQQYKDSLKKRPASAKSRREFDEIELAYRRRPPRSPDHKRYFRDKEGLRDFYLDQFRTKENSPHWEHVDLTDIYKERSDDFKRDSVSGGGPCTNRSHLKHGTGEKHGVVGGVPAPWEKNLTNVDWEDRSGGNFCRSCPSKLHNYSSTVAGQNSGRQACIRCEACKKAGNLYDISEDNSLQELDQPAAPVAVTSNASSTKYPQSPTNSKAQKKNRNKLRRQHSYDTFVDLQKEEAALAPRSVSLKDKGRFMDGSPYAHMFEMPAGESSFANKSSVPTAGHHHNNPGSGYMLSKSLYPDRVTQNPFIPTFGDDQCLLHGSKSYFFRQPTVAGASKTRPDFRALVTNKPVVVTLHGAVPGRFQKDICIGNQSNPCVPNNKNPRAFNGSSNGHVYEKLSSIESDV
- test.description: Whole-cell patch-clamp of N-terminal truncated NMDARs in HEK293 cells
- Type: cell-based
- test.context: 1 mM glutamate, PA-S 50 µM
Where a name gives a salt, the structure may show the parent alone.
quantity.kind: IC50 (µM)

> print(dat)
                                   compound                           subject.of.test  reported.result
1  CC(=O)[C@H]1CC[C@H]2[C@@H]3CC[C@@H]4C[C@H](OS(=O)(=O)O)CC[C@]4(C)[C@H]3CC[C@]12C [PA-S, 20-oxo-5β-pregnan-3α-yl sulfate]  GluN1ΔN/GluN2BΔN (Rattus norvegicus, UniProt P35439+Q00960, DEL32-386)               41
